protocol_summary: soluble on expression in E. coli; label from the status in PepcDB or PDB records
readout_label: soluble on expression in E. coli

Previously resolved entries follow.
sequence_text: MRYTILTKGDSKSNALKHKMINHMKDFQMVEDSENPEIVISVGGDGTLLQAFHQYSHMLSKVAFVGIHTGHLGFYADWLPHEVEKLIIEINNSEFQVIEYPLLELIVRYNDNGYETRYLALNEATMKTENGSTLVVDVNIRGKHFERFRGDGLCISTPSGSTAYNKALGGALIHPSLEAMQIAEIASINNRVFRTVGSPLVLPKHHTCLITPVNHDTIRTTIDHVSIKHKNVNAIQYRVANEKVRFARFRPFPFWKRVHDSFISSDDERMAGDPLEHHHHHH
soluble on expression in E. coli: soluble
//
sequence_text: KTLPRDEKEKQIADSKERLKSDTQKVKDAKNADAIKKAFEEGKVNIPQAHIPGDLNKDKEKLLAELKQKADDTEKAIDVDKT
soluble on expression in E. coli: not soluble
//
sequence_text: MGSDKIHHHHHHMKIGITCYPSMGGSGIIATELGIKMAERGHEVHFITSNIPFRIRKPLPNMTFHQVEVNQYAVFQYPPYDITLSTKISDVIQEYDLDILHMHYAVPHAVCGILAKQMSGKNVKIMTTLHGTDITVLGYDHTLQNAIKFGIEQSDIVTSVSHSLAQQTYEIINTKKEIIPIYNFVRENEFPTRHNEELKDCYGISPEEKVLIHVSNFRKVKRIDTVIETFAKVHESIPSKLILLGDGPELIDMRHKARELDVETHVLFLGKQNDVSAFYQLSDLVLLLSEKESFGLTLLEAMKTGVLPIGSHAGGIKEVIRHEETGFIVDIGDSTQAAKYAIKLLSNPELYQKMQSQMLKDIEARFSSDLITDQYENYYRKMLEQGENNNES
soluble on expression in E. coli: not soluble
//
sequence_text: AHHHHHHGSGRFKKVPSSLCPMKKPGDVLREILQEKGIKSVGTLSRKWPSGRDIYQELALLLLEGDGAIVELREETAESWDLNGKKVGPSKYAYVRPCFVEKFKVIVDGSEIAKRLPDYPWIIVDLTFWNRHIPKEKDKVALQLRETYAVVRRMYYPRRFAITWVNEEFKKKNKVPLEKVVSYEGSTADFLREKGINRVVLLDPNAEEVLSREDLQERAFIIGGIVDMKGDKKGTTAKIGEVLEKEGIDVLRRKIVLRGDIVGVPDRINHIAEILLRMLYGEDMEKAILAVQAPTHARWRLRKEIPKRKIRYLIDGKLYLVVEKELYDELKQWLNIRWEDFVKVLRETGMVALERRRIHHLNKISVFRFDKSGGKRVILLKRAALLCYNC
soluble on expression in E. coli: soluble
//
sequence_text: MANLPSSSGMFSRLLANVFNTTVASRCSASGRWWPQPDRRFTTKSDEKSSLEPKNTNETDVIITQQGVKLSKSNAAPVYYKPKSTGPGYELVEHKKGEMIANYTLFEAAINKSKVPWVNYDGLTSEERTIHMAHTRAINDRKLTYIDPKTGYSVFTISHHLQKGKCCGNGCRHCAYEMINASDEIRSQKVWNGAFYV
soluble on expression in E. coli: not soluble

Query sequence follows.
// soluble on expression in E. coli lookup, key: `MKLYYTPGSCSLSPHIVLRETGLDFSIERIDLRTKKTESGKDFLAINPKGQVPVLQLDNGDILTEGVAIVQYLADLKPDRNLIAPPKALERYHQIEWLNFLASEVHKGYSPLFSSDTPESYLPVVKNKLKSKFVYINDVLSKQKCVCGDHFTVADAYLFTLSQWAPHVALDLTDLSHLQDYLARIAQRPNVHSALVTEGLIKE`
soluble
